All figures here come from ChEMBL document CHEMBL3392991.

Target: Nitric oxide synthase, inducible (Mus musculus)
Sequence (P29477 whole entry): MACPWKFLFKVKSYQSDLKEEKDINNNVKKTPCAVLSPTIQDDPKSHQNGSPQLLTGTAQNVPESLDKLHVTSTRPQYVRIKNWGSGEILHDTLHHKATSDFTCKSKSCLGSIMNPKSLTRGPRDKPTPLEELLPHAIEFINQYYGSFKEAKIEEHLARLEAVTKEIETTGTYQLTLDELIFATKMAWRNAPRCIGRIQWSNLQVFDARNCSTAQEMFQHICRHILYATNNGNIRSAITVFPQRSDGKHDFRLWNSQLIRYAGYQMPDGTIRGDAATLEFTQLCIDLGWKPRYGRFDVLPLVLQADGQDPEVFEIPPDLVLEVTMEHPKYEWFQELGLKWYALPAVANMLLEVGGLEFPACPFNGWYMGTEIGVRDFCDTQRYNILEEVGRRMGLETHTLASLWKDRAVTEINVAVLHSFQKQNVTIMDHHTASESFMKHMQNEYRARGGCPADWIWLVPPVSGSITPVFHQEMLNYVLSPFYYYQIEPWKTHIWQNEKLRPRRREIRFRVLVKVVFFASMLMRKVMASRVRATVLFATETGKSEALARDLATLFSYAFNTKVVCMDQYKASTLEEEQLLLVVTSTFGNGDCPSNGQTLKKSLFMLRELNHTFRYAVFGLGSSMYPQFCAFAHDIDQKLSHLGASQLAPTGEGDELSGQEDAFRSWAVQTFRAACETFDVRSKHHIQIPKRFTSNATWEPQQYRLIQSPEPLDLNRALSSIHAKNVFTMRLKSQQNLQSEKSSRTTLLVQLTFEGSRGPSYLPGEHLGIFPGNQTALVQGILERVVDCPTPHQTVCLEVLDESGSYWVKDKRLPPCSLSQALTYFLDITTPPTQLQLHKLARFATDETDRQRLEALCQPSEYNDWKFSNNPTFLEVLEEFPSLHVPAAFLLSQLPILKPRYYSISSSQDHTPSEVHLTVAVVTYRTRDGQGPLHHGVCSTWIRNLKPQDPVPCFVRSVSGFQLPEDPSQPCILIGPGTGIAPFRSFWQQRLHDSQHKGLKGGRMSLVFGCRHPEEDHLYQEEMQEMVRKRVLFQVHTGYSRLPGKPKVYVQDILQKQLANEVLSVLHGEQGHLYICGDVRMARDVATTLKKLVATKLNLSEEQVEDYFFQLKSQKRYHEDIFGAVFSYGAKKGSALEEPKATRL
observation-type: Ki

                      smiles_representation                           measured_target  data_value
0  Cc1cc(N)nc(CCc2cc(C#N)cc(NCCc3ccccn3)c2)c1  Nitric oxide synthase, inducible (Mus musculus)     12.8 µM
